test system: HeLa cells; test: Kinetic imaging of NBD-triazine probe uptake and sequestration, fitted to nested two-compartment transport model; assay type: cell-based; settings: median over optimal solutions within 5% of the best fit
# strict inequality: median Pap(cyto) (apparent partition coefficient between extracellular medium and cytosol) < 10 yields Condition met, everything else yields Condition not met

Quick check: does CCCCNc1nc(NCCCCCCNc2ccc([N+](=O)[O-])c3nonc23)nc(NCCc2ccc(OC)cc2)n1 [Compound D1] have median Pap(cyto) (apparent partition coefficient between extracellular medium and cytosol) under 10?
Condition not met

Quick check: does `CCCCCCCCNc1nc(NCCCCCCNc2ccc([N+](=O)[O-])c3nonc23)nc(NCCC(c2ccccc2)c2ccccc2)n1` have median Pap(cyto) (apparent partition coefficient between extracellular medium and cytosol) under 10?
Condition not met

Quick check: does `CCCCCCCCNc1nc(NCCCCCCNc2ccc([N+](=O)[O-])c3nonc23)nc(NCc2ccc(C)cc2)n1` have median Pap(cyto) (apparent partition coefficient between extracellular medium and cytosol) under 10?
Condition met

Quick check: does `CCCCNc1nc(NCCCCCCNc2ccc([N+](=O)[O-])c3nonc23)nc(NCc2ccccc2)n1` have median Pap(cyto) (apparent partition coefficient between extracellular medium and cytosol) under 10?
Condition not met

Quick check: does `COc1cccc(CNc2nc(NCCCCCCNc3ccc([N+](=O)[O-])c4nonc34)nc(NC(C)C)n2)c1` have median Pap(cyto) (apparent partition coefficient between extracellular medium and cytosol) under 10?
Condition not met
